- Tested on: 786-0 renal
- EXPERIMENT_DESCRIPTION: NCI tumour cell line growth inhibition, 48 h
For each of the compounds below, state its TGI.

c1ccc([C@H]2CN3CCSC3=N2)cc1 :: > 100 µM
CC(=O)OCC1OC(OCC2OC(N3C(=S)N[C@H]([C@@H](O)[C@H](O)[C@H](O)CO)[C@H]3O)C(OC(C)=O)C(OC(C)=O)C2OC(C)=O)C(OC(C)=O)C(OC(C)=O)C1OC(C)=O (stereo partly drawn) :: > 100 µM
O=C1Nc2ccccc2C12CC(c1ccccc1)=NN2 (stereo not drawn) :: 65.2 µM
O=C(Nc1ccc2ccccc2c1)Nn1cnnc1 :: > 100 µM
COC(=O)C1CC2(c3ccc(C)cc3)C(c3ccc(C)cc3)=C(c3ccc(C)cc3)C1(c1ccc(C)cc1)S2=O (stereo not drawn) :: > 100 µM
O=C(N/C(=C\c1ccc([N+](=O)[O-])cc1)c1nc2[nH]c(=S)[nH]c(=O)c2[nH]1)c1ccccc1 :: > 100 µM
COC(=O)c1[nH]nc(-c2ccccc2)c1N1CCCCC1 :: 57.9 µM
NCCCCNCCCN :: > 100 µM
N=C1N=C(N)c2cc3c(cc21)SCCSCCCSCCS3 :: 32.6 µM
CC(/C=N/NC1=NCCCCN1)=N\NC1=NCCCCN1 :: > 100 µM

Report TGI for every entry below.
1. COc1ccc(S(=O)(=O)O)cc1NS(=O)(=O)c1ccc(C)cc1
2. O=C1C2Cc3ccccc3CN2C(=O)N1CN1CCN(CN2C(=O)C3Cc4ccccc4CN3C2=O)CC1 (stereo not drawn)

["> 100 µM", "> 100 µM"]

Report TGI for every entry below.
1. CC(=O)NNC(=O)c1nn(-c2ccc(Cl)cc2)cc1OC(C)=O
2. CC1OC(OC2C(OC3C[C@@]4(C)C(C[C@H](O)[C@H]5[C@H](C6(C)CCC(C(C)(C)O)O6)CCC54C)[C@]4(C)CC[C@@H](O)C(C)(C)C34)OC(CO)C(O)C2O)C(O)C(O)C1O (stereo partly drawn) (tested in a mixture with another compound)

1. > 100 µM
2. > 100 µM

Report TGI for every entry below.
1. N#CC1N(C(=O)c2ccc(F)cc2)c2ccccc2N1C(=O)c1ccc(F)cc1
2. CC(=O)Nc1ccc(-c2nnc(SCC(=O)Nc3ccccc3[N+](=O)[O-])o2)cc1
3. CCC(=N\NC(N)=S)/C(C)=N/O
4. Brc1cccc(C2(CCCC3(c4cccc(Br)n4)OCCO3)OCCO2)n1

1: > 100 µM; 2: > 100 µM; 3: > 100 µM; 4: > 100 µM

Report TGI for every entry below.
1. COc1ccc(OC)c(CNc2ccc(O)c(C(=O)NCCc3ccc(F)cc3)c2)c1
2. COc1cc2c(cc1OCCCCCCNC(=O)c1cc3ccccc3[nH]1)N=CC1CCCN1C2=O (stereo not drawn)
3. O=C(c1ccc(Cl)cc1)N1N=C(c2ccc(Cl)cc2)CC1(O)c1cc(F)c(Cl)cc1Cl (stereo not drawn)
4. Cc1ccnc(NC(=S)Nc2ccccc2Cl)c1
5. CC(=O)NC1C(OCc2ccccc2)OC(CO)C(O)C1OCC(=O)NC(C)C(=O)NC(CCC(=O)NCCCCCC(=O)Nc1ccc2c(c1)CN1C(=O)c3ccccc3C1=N2)C(N)=O (stereo not drawn)
6. CCCCCCC(CCl)c1sc(-c2csc(CCNC(=O)OC(C)(C)C)n2)nc1C(=O)OC (stereo not drawn)
7. COc1ccc2oc(-c3ccncc3)cc(=O)c2c1
8. COc1ccc(/C=C/c2nc(N3CCOCC3)c3cc(F)c(F)cc3n2)cc1OC

1. 68.4 µM
2. > 100 µM
3. > 100 µM
4. > 100 µM
5. > 100 µM
6. 75.9 µM
7. > 100 µM
8. > 100 µM

Report TGI for every entry below.
1. CC(C)(C)c1ccc(C(=O)N/N=C/c2ccc(O)cc2O)cc1
2. Oc1[nH]c2ccccc2c1N=NC(=S)N1CCCCCC1
3. CC(=O)OCCC/C(=C\c1ccc2ccccc2c1)[N+](=O)[O-]
4. CC1=C(C(=O)Nc2ccccc2C)C(c2ccc(N(C)C)cc2)C(C(=O)Nc2ccccc2C)=C(C)N1

1. 3.3 µM
2. 2.63 µM
3. 3.35 µM
4. > 100 µM

Report TGI for every entry below.
1. O=C1c2ccccc2C(=O)N1C(=S)c1ccccc1
2. C/C1=C\CC[C@@](C)(O)[C@H]2C[C@H](CC/C(C)=C/CC1)C1(CC1)C(=O)O2

1: > 100 µM; 2: 30.6 µM

Report TGI for every entry below.
1. Cc1ccc([N+](=O)[O-])cc1S(=O)(=O)Nc1ccc(C2=NN(c3ccc([N+](=O)[O-])cc3[N+](=O)[O-])C(c3ccccc3O)C2)cc1 (stereo not drawn)
2. Cc1ccccc1NC(=S)N/N=C(/c1ccccc1)c1ccccn1
3. COc1cc(NCC(C#N)C#N)ccc1N=Nc1ccc([N+](=O)[O-])cc1
4. COc1cc(C/C=C/c2ccccc2)c(OC)cc1O
5. COc1ccc2[nH]c(C(=O)N3CC(CCl)c4ccc([N+](=O)[O-])cc43)cc2c1 (stereo not drawn)
6. Cn1c2ccccc2c2cc(-c3ccccc3)c3c(c21)C(=O)C=CC3=O

1. > 100 µM
2. 10.8 µM
3. > 100 µM
4. 27.7 µM
5. > 100 µM
6. 22.7 µM
